Each entry below lists one item and its recorded IC50 value.
Biological target: αvβ1 integrin (αvβ1 expressing CHO cells) (Homo sapiens (Human), UniProt P05556+P06756)
Sequence (P06756 31-889): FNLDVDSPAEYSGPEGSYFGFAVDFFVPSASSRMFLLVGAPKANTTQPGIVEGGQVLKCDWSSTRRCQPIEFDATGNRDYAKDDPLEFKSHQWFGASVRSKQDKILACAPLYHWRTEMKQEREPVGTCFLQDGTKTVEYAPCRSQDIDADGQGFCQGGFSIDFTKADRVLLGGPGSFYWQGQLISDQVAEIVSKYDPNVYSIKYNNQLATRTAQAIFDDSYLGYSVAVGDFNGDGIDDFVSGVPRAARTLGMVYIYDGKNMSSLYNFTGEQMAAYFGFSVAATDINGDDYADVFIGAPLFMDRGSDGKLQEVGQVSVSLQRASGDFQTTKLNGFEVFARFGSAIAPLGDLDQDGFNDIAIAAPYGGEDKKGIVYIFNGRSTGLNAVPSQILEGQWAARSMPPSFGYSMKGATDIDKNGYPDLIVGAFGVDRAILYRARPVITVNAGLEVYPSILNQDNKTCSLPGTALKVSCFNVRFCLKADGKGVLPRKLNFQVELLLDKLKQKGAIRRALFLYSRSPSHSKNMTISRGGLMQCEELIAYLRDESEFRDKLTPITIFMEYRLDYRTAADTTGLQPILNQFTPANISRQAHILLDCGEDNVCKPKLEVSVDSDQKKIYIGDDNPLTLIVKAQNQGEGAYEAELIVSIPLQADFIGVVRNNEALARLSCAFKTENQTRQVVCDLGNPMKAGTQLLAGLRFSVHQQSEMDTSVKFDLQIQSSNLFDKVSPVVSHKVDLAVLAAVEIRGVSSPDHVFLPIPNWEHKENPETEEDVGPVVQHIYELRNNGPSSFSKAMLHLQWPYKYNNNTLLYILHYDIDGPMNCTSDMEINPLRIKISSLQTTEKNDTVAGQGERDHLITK
Sequence (P06756 891-1048 partner): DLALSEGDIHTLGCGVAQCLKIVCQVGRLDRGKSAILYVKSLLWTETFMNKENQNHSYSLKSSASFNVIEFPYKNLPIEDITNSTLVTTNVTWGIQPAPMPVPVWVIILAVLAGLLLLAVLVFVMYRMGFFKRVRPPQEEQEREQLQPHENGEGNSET
Sequence (P05556 21-798): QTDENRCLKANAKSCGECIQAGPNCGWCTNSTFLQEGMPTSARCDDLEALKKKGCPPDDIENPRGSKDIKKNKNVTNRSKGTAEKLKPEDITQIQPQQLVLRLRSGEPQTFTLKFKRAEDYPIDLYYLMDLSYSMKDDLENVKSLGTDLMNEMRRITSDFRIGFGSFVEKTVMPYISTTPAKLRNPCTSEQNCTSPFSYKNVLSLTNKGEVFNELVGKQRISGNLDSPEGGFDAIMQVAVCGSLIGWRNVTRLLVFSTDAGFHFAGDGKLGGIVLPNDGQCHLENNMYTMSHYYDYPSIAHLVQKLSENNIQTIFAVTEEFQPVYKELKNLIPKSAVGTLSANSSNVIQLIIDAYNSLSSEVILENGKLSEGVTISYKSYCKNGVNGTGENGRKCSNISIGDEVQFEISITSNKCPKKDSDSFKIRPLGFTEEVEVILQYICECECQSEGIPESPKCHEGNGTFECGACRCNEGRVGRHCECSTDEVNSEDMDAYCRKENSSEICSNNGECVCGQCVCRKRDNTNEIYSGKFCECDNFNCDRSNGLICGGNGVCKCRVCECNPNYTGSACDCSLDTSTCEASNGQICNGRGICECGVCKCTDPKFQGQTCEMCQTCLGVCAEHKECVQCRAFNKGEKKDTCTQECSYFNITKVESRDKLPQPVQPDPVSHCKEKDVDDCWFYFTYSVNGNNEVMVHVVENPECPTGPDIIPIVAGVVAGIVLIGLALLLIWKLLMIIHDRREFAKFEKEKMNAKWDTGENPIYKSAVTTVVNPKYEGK
Test: Cell adhesion assay: inhibition of αvβ1 expressing CHO cells attaching to TGFβ1LAP
Assay type: cell-based
Settings: 1 h at 37° C., crystal violet absorbance 595 nm, read-out: αvβ1 Inhibition IC50 (nM)-range
Observation type: IC50

* O=C(N[C@@H](CCCCCCCc1ccc2c(n1)NCCC2)C(=O)O)c1ccc2cn(C(F)F)nc2c1 | 50 to 250 nM
* O=C(N[C@@H](Cc1ccc(OCCCc2ccc3c(n2)NCCC3)cc1)C(=O)O)c1ccc2[nH]ncc2c1 | < 50 nM
* CN1C(=O)CN=C1NCCCCCCCC[C@H](NC(=O)c1c(Cl)cccc1Cl)C(=O)O | > 1000 nM
* O=C(N[C@@H](CCCCCCCc1ccc2c(n1)NCCC2)C(=O)O)c1ccc(-c2cccnc2)cc1 | 250 to 1000 nM
* O=C(NC(Cc1ccc(OCC2CC(Nc3ccccn3)C2)cc1)C(=O)O)c1c(Cl)cccc1Cl (centres unmarked) | < 50 nM
* O=C(N[C@@H](Cc1ccc(OCCCc2ccc3c(n2)NCCC3)cc1)C(=O)O)c1c(F)cccc1C(F)(F)F | < 50 nM
* O=C(N[C@@H](CCCCCCCCNC1=NCCO1)C(=O)O)c1c(Cl)cccc1Cl | > 1000 nM
* O=C(N[C@@H](Cc1ccc(OCCCc2ccc3c(n2)NCCC3)cc1)C(=O)O)c1ccc(C2CC2)cc1 | < 50 nM
